Values were extracted from patent US6770740B1.

Test system: plasmid DNA
Assay: Thiazole orange displacement titration of peptide binding to DNA, Example 6
Conditions: titration across charge ratios 0.25-8
Below: a set of entries, each annotated with reported charge ratio (NH4+:PO4) needed to condense DNA (thiazole orange fluorescence minimum).
PROPERTY: charge ratio (NH4+:PO4) needed to condense DNA (thiazole orange fluorescence minimum)

SUBSTANCE | REPORTED_VALUE
Cys-(Lys)6-Cys (CKKKKKKC) [Peptide 6] | 2
Cys-(Lys)8-Cys (CKKKKKKKKC) [Peptide 7] | 2
Cys-(Lys)4-Cys (CKKKKC) [Peptide 5] | 3
